Data credit: ChEMBL document CHEMBL3797178

System: Staphylococcus epidermidis
assay: Antibacterial activity against methicillin-resistant Staphylococcus epidermidis 14-37 after 18 to 24 hrs by CLSI M100-S11 method
Assay type: functional
MIC values, listed per item

Reference set, count: 2
molecule	MIC
CO/N=C1\CN(c2nc3c(cc2F)c(=O)c(C(=O)O)cn3-c2nc(N)c(F)cc2F)[C@H]1CN	> 128 µg/mL
CO/N=C1\CCN(c2c(F)cc3c(=O)c(C(=O)O)cn(-c4nc(N)c(F)cc4F)c3c2Cl)CC1N (stereo not given)	> 128 µg/mL

Inquiry: Using the record for `NC[C@@H]1/C(=N/OCc2ccccc2)CN1c1nc2c(cc1F)c(=O)c(C(=O)O)cn2-c1nc(N)c(F)cc1F` , report its MIC.
Reply text: > 128 µg/mL

Inquiry: Using the record for CO/N=C1\CN(c2c(F)cc3c(=O)c(C(=O)O)cn(-c4nc(N)c(F)cc4F)c3c2Cl)CC1CN (stereo not given) , report its MIC.
Reply text: 64 µg/mL

Inquiry: Using the record for CO/N=C1\CCN(c2nc3c(cc2F)c(=O)c(C(=O)O)cn3-c2nc(N)c(F)cc2F)CC1N (stereo not given) , report its MIC.
Reply text: > 128 µg/mL

Inquiry: Using the record for `NC[C@H]1/C(=N/OCc2ccccc2)CN1c1nc2c(cc1F)c(=O)c(C(=O)O)cn2-c1nc(N)c(F)cc1F` , report its MIC.
Reply text: > 128 µg/mL

Inquiry: Using the record for Nc1nc(-n2cc(C(=O)O)c(=O)c3cc(F)c(N4CC/C(=N\OCc5ccccc5)C(O)C4)nc32)c(F)cc1F (stereo not given) , report its MIC.
Reply text: > 128 µg/mL

Inquiry: Using the record for NCC1CN(c2nc3c(cc2F)c(=O)c(C(=O)O)cn3-c2nc(N)c(F)cc2F)C/C1=N\OCc1ccccc1 (stereo not given) , report its MIC.
Reply text: 32 µg/mL

Inquiry: Using the record for CO/N=C1\CN(c2nc3c(cc2F)c(=O)c(C(=O)O)cn3-c2nc(N)c(F)cc2F)CC1CN (stereo not given) , report its MIC.
Reply text: 128 µg/mL

Inquiry: Using the record for `CCO/N=C1\CN(c2nc3c(cc2F)c(=O)c(C(=O)O)cn3-c2nc(N)c(F)cc2F)[C@@H]1CN` , report its MIC.
Reply text: > 128 µg/mL
